Assay: qHTS drug screen for cell cycle checkpoint inhibitors in PARPi-resistant BRCA-mutant ovarian cancer cell lines. (AID 1963452)
Settings: PEO1/OlaR viability, CellTiter-Glo luminescence, 96 h; stronger effect = lower value
Entries and their measured Z-AUC follow.
Answer with a bare number; do not write a unit.

Reference set (5 entries):
Prompt: Which Z-AUC reading was recorded for the compound "CC(C)(C)C(=O)Oc1ccc(S(=O)(=O)Nc2ccccc2C(=O)NCC(=O)O)cc1" ?
Response: 1.22

Prompt: Which Z-AUC is listed for CC(C)NCC(O)c1ccc(O)c(O)c1 (stereo unspecified) ?
Response: 1.31

Prompt: Look at this compound and give its reported Z-AUC. "CCOC(=O)Nc1ccc(NCc2ccc(F)cc2)nc1N"
Response: -0.444

Prompt: I am curious: what Z-AUC value has been reported for Cc1ccccc1N1C(=O)c2cc(S(N)(=O)=O)c(Cl)cc2NC1C (stereo unspecified) ?
Response: -0.939

Prompt: Which Z-AUC value is on record for "NC(=O)NO" ?
Response: 1.41

Let us move to another entry and its Z-AUC.
Prompt: Sample "Cc1ccc(C(=O)Nc2ccc(S(=O)(=O)O)c3cc(S(=O)(=O)O)cc(S(=O)(=O)O)c23)cc1NC(=O)c1cccc(NC(=O)Nc2cccc(C(=O)Nc3cc(C(=O)Nc4ccc(S(=O)(=O)O)c5cc(S(=O)(=O)O)cc(S(=O)(=O)O)c45)ccc3C)c2)c1" — what was its Z-AUC?
Response: 0.147

---

Assay: qHTS profiling of the MIPE4 collection as inhibitors of Plasmodium falciparum (DD2) proliferation (AID 743345)
Conditions: P. falciparum Dd2 in erythrocytes, SYBR Green DNA, 72 h; at 28.5 µM (top of the series) unless noted
outcome.measure: parasite growth remaining, % of DMSO control (lower = more inhibition) (%)
Reply with just the number (in %).

These solved cases illustrate the format of a correct answer.
Prompt: # lookup: parasite growth remaining, % of DMSO control (lower = more inhibition) of "N[C@@H](Cc1c[nH]c2ccc(O)cc12)C(=O)O"
Response: 101

Prompt: Record request: parasite growth remaining, % of DMSO control (lower = more inhibition) value, item "Cc1ccc(C(=O)Nc2ccc(S(=O)(=O)O)c3cc(S(=O)(=O)O)cc(S(=O)(=O)O)c23)cc1NC(=O)c1cccc(NC(=O)Nc2cccc(C(=O)Nc3cc(C(=O)Nc4ccc(S(=O)(=O)O)c5cc(S(=O)(=O)O)cc(S(=O)(=O)O)c45)ccc3C)c2)c1"
Response: 75.7

Prompt: Endpoint output: parasite growth remaining, % of DMSO control (lower = more inhibition) of "Nc1c2c(nc3ccccc13)CCCC2" . Value?
Response: 15.1

Please examine the following record next.
Prompt: # get_value(readout='parasite growth remaining, % of DMSO control (lower = more inhibition)', item= Clc1ccc(C(c2ccccc2Cl)C(Cl)Cl)cc1 (centres undefined) )
Response: 51.1

---

The entries below come with measured Z-AUC values attached.
Assay: qHTS drug screen for cell cycle checkpoint inhibitors in PARPi-resistant BRCA-mutant ovarian cancer cell lines. (AID 1963452)
Details: PEO1/OlaR viability, CellTiter-Glo luminescence, 96 h; measured here: PEO4 Z-AUC; stronger effect = lower value
Give the figure only, with no unit attached.

Some molecules with known Z-AUC results, for comparison:
Prompt: // query Z-AUC value for entry "CC[N+](CC)(CC)CCOc1cccc(OCC[N+](CC)(CC)CC)c1OCC[N+](CC)(CC)CC"
Response: 0.666

Prompt: So what's the measured Z-AUC for this one? "CC[C@@]1(O)C(=O)OCc2c1cc1n(c2=O)Cc2cc3c(CN(C)C)c(O)ccc3nc2-1"
Response: -0.128

Prompt: Would you mind telling me what Z-AUC value was observed for "NC(=O)OCC(COC(N)=O)c1ccccc1" ?
Response: 1.07

New cases:
Prompt: What Z-AUC value was documented for this molecule, "CC(=O)OCC(CCn1cnc2cnc(N)nc21)COC(C)=O" ?
Response: 1.62

Prompt: I'd like to know its Z-AUC. The molecule in question is "Cc1ccc(C(=O)Nc2ccc(S(=O)(=O)O)c3cc(S(=O)(=O)O)cc(S(=O)(=O)O)c23)cc1NC(=O)c1cccc(NC(=O)Nc2cccc(C(=O)Nc3cc(C(=O)Nc4ccc(S(=O)(=O)O)c5cc(S(=O)(=O)O)cc(S(=O)(=O)O)c45)ccc3C)c2)c1"
Response: 0.677

---

Test system: ATS95
Experiment: qHTS profiling for inhibitors of Plasmodium falciparum proliferation (AID 504749); note: nearly all actives have a fitted effect of over 60% in size
Conditions: P. falciparum in erythrocytes, SYBR Green DNA, 72 h; series mostly up to 28.7 µM
Inconclusive results are not listed. Active and inactive are the calls of the source. Calls come from the whole dose curve; as a rule, active = well fitted inhibition curve with a large enough effect; inconclusive = small, poorly fitted or top-dose-only effect; inactive = flat fitted curve, though single readings scatter.
Return exactly one item of class 1 (active), class 0 (inactive)

These recorded examples may help you get a feel for the data.
Prompt: Hi, sorry to bother you, what did the test record for "N[C@@H](Cc1c[nH]c2ccc(O)cc12)C(=O)O" ?
Response: class 0

Prompt: What classification did COc1ccccc1OCCNCC(O)COc1cccc2[nH]c3ccccc3c12 (configuration not stated) end up with in this test?
Response: class 1

Prompt: Recorded test call requested for "NC(=O)OCC(COC(N)=O)c1ccccc1"
Response: class 0

Prompt: Recorded test call requested for COc1ccccc1N1CCN(CC(O)COc2cccc3ccccc23)CC1 (configuration not stated)
Response: class 0

Prompt: # lookup: test call for "CN(CCOc1ccc(NS(C)(=O)=O)cc1)CCc1ccc(NS(C)(=O)=O)cc1"
Response: class 0

New cases:
Prompt: Please let me know the test result on file for "COc1cc2c(c(OC)c1OC)-c1ccc(OC)c(=O)cc1[C@@H](NC(C)=O)CC2" .
Response: class 0

---

Experiment: Quantitative High-Throughput drug screen in 47 multiple myeloma cell lines against the NCATS MIPE library collection: RPMI8226_ATCC cell viability assay (AID 1919871); note: nearly all actives have a fitted effect of over 30% in size
Details: RPMI8226 myeloma viability, CellTiter-Glo ATP luminescence, 48 h; series mostly up to 45.8 µM
Results filed as inconclusive are left out. Activity calls are given as the source filed them. Calls come from the whole dose curve; as a rule, active = well fitted cell-killing curve with a large enough effect; inconclusive = small, poorly fitted or top-dose-only effect, or effect the other way; inactive = no such curve, though single readings can be large or run the other way.
Assign a class; possible classes are active, inactive

Completed entries (count: 3):
Prompt: What was the test verdict on "C[C@@H]1CC(=O)NN=C1c1ccc(NN=C(C#N)C#N)cc1" ?
Response: active

Prompt: Hello, I am checking results. What call was entered for "NCCCCCC(=O)O" ?
Response: inactive

Prompt: Assay result, entry "CN(CCOc1ccc(NS(C)(=O)=O)cc1)CCc1ccc(NS(C)(=O)=O)cc1" — outcome?
Response: inactive

Kindly review the next compound as well.
Prompt: I would be grateful if you could indicate the recorded call for "Nc1c2c(nc3ccccc13)CCCC2" .
Response: active

---

Target: Ferritin light chain (Equus caballus) (UniProt P02791)
Experiment: qHTS Validation Assay for Identification of Novel General Anesthetics (AID 2323); note: potency is the fitted concentration of half-maximal effect
Details: horse apoferritin, anesthetic-site fluorescent probe displacement; series mostly up to 76.9 µM
Inconclusive results are not listed. Calls of active or inactive are those of the source. The call rests on the fitted dose curve; in most records, active means well fitted curve in the direction sought with a large enough effect; inconclusive means small, poorly fitted or top-dose-only effect, or another doubt; inactive means no such curve, though single readings can be large or run the other way.
outcome.measure: Potency

Recorded Potency, per entry:
Prompt: Query: Potency; subject: "NC(=O)OCC(COC(N)=O)c1ccccc1"
Response: inactive

Prompt: Would you mind telling me what Potency value was observed for "O=C1c2c(O)ccc(O)c2C(=O)c2c(NCCNCCO)ccc(NCCNCCO)c21" ?
Response: 17.8 µM (active)

Prompt: Name the recorded Potency for "O=C1N(c2ccccc2)c2ccccc2C1(Cc1ccncc1)Cc1ccncc1" .
Response: inactive

Prompt: Value lookup for Potency; key = CCC1(C)CC(=O)NC1=O (stereo not given)
Response: inactive

Next up:
Prompt: Can you look up the measured Potency of "COc1ccc2[nH]cc(CCNC(C)=O)c2c1" for me?
Response: inactive

---

Test: Quantitative High-Throughput drug screen in 47 multiple myeloma cell lines against the NCATS MIPE library collection: MM1S_ATCC cell viability assay (AID 1918980); note: nearly all actives have a fitted effect of over 45% in size
Settings: MM1S myeloma viability, CellTiter-Glo ATP luminescence, 48 h; series mostly up to 45.8 µM
Inconclusive results are not listed. Calls of active or inactive are those of the source. Calls come from the whole dose curve; as a rule, active = well fitted cell-killing curve with a large enough effect; inconclusive = small, poorly fitted or top-dose-only effect, or effect the other way; inactive = no such curve, though single readings can be large or run the other way.
Please reply with one of these outcomes: active, inactive

Prompt: What call does the record list for "Cc1cn([C@H]2C[C@H](N=[N+]=[N-])[C@@H](CO)O2)c(=O)[nH]c1=O" ?
Response: active

Prompt: How was "CC1(C)O[C@H]2CC(=O)OC[C@]23[C@H]2CC[C@@]4(C)[C@H](c5ccoc5)OC(=O)[C@H]5O[C@]54[C@]2(C)C(=O)C[C@@H]13" classified in this test?
Response: inactive

Prompt: Please state the recorded outcome for this compound: "Cc1ccc(-c2cc(C(F)(F)F)nn2-c2ccc(S(N)(=O)=O)cc2)cc1"
Response: active

Others:
Prompt: Recorded call for "O=C(CCCN1CCC(O)(c2ccc(Cl)cc2)CC1)c1ccc(F)cc1" ?
Response: active

Prompt: Recorded call for "Cn1c(=O)c2[nH]cnc2n(C)c1=O" ?
Response: active

Prompt: Outcome logged for "CCCCc1oc2ccccc2c1C(=O)c1cc(I)c(OCCN(CC)CC)c(I)c1" in this assay:
Response: active
